These data points were gathered from paper PMC9421653.

molecular target: human GPR84 (Homo sapiens, UniProt P04899+Q9NQS5); construct: expressed in transfected cells; host or cells: Flp-In T-REx 293 cells, doxycycline-induced; membrane preparations; assay: biochemical; format: biochemical; conditions: [35S]GTPγS assay; negative log of the IC50 in molar; mean ± SEM
Sequence (Q9NQS5+P04899 fused): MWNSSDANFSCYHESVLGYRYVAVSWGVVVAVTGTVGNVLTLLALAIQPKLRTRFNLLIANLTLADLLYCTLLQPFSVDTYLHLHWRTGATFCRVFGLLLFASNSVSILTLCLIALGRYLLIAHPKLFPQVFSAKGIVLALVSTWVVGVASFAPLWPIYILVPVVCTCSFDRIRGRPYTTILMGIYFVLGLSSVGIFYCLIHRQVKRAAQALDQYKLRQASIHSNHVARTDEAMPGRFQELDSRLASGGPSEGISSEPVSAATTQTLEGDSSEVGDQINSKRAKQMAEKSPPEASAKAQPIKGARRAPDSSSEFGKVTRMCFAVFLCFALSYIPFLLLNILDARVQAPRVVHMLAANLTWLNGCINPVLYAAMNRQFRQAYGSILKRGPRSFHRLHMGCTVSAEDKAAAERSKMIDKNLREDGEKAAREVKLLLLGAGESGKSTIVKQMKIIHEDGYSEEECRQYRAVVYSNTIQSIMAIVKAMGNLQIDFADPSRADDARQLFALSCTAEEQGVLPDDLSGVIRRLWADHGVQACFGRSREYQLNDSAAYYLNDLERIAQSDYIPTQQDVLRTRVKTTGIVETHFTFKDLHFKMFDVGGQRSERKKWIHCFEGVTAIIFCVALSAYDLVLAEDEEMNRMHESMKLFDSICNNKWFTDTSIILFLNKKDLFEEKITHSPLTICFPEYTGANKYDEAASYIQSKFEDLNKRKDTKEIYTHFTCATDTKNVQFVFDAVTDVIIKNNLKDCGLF
Readout Kind: GTPγS (pIC50)

Substance Smiles | Recorded Value
c1ccc(-c2nnc(Cc3c[nH]c4cnccc34)nc2-c2ccnnc2)cc1 | 5.84
CS(=O)(=O)c1ccc(-c2nnc(Cc3c[nH]c4ccccc34)nc2-c2ccccc2)cc1 | 6.18
c1ccc(-c2nc(Cc3c[nH]c4cnccc34)nnc2-c2cnccn2)cc1 | 5.91
CN1CCN(C(=O)c2ccc(-c3nnc(Cc4c[nH]c5ccccc45)nc3-c3ccccc3)cc2)CC1 | 5.95
